- details: human, 2 h, pH 7.4
Counter-ions that a name gives are not always drawn.
The cumulative amount of test compounds by entry:

| compound | units of measure | The cumulative amount of test compounds |
| --- | --- | --- |
| CCCCC(=O)Oc1ccc(C[C@H](N)C(=O)OC(C)C)cc1OC(=O)CCCC.Cl [Compound-13] | mg | 1.05 |
| CC(C)OC(=O)[C@H](Cc1ccc2c(c1)OC(=O)C(N)CC(=O)O2)NC(=O)OC(C)OC(=O)C(C)C (some centres unmarked) [Compound-20(b), hydrobromide] | mg | 0.85 |
| CCCN(CCC)CCOC(=O)c1cc(-c2ccc(F)cc2F)ccc1OC(C)=O.Cl [Compound-27] | mg | 2.03 |
| CCC(CC)C(=O)Oc1ccc(CCNC(=O)OC2CCC3CCCCN3C2)cc1OC(=O)C(CC)CC (centres unmarked) [Compound-7] | mg | 1.27 |
| CC(C)OC(=O)[C@H](Cc1ccc(OC(=O)c2ccccc2)c(OC(=O)c2ccccc2)c1)NC(=O)OC1CCN2CCCCC12 (some centres unmarked) [Compound-22, acetate] | mg | 0.89 |
| CNCC(=O)NCCc1ccc(OC(=O)c2ccccc2)c(OC(=O)c2ccccc2)c1.Cl [Compound-1] | mg | 1.33 |
| CC(C)OC(=O)[C@@H](N)Cc1ccc(OC(=O)c2ccccc2)c(OC(=O)c2ccccc2)c1.Cl [Compound-11] | mg | 1.15 |
| CC(C)OC(=O)[C@H](Cc1ccc2c(c1)OC(=O)CC(N)C(=O)O2)NC(=O)OC(C)OC(=O)C(C)C (some centres unmarked) [Compound-20(a), hydrobromide] | mg | 0.88 |
| CC(OC(=O)NCCc1ccc2c(c1)OC(=O)CC(N)C(=O)O2)OC(=O)C(C)C (centres unmarked) [Compound-8b] | mg | 1.24 |
| CCN(CC)CCOC(=O)CC1=C(C)/C(=C/c2ccc([S+](C)[O-])cc2)c2ccc(F)cc21 (centres unmarked) [Compound-24] | mg | 1.79 |
| CCN(CC)CCOC(=O)c1ccccc1Nc1c(Cl)ccc(C)c1Cl [Compound-23] | mg | 1.69 |
| CNCC(=O)Oc1ccc(C[C@H](NC(=O)OC(C)OC(=O)C(C)C)C(=O)OC(C)C)cc1OC(=O)c1ccccc1 (some centres unmarked) [Compound-21(a), hydrochloride] | mg | 1.08 |
| CC(=O)Oc1ccccc1C(=O)O [Compound-32, acetylsalicylic acid, reference compound] | mg | 0.001 |
| Br.CCC(CC)OC(=O)[C@@H](N)Cc1ccc(OC(=O)C(C)C)c(OC(=O)C(C)C)c1 [Compound-15] | mg | 1.08 |
| Cl.NC(Cc1ccccc1)C(=O)NCCc1ccc(OC(=O)c2ccccc2)c(OC(=O)c2ccccc2)c1 (centres unmarked) [Compound-4] | mg | 1.21 |
| CC(C)OC(=O)[C@H](Cc1ccc(OC(=O)C(C)C)c(OC(=O)C(C)C)c1)NC(=O)C1CCN2CCCCC2C1.Cl (some centres unmarked) [Compound-19] | mg | 0.98 |
| Br.CNCC(=O)OC(C)OC(=O)NCCc1ccc(OC(=O)c2ccccc2)c(OC(=O)c2ccccc2)c1 (centres unmarked) [Compound-3] | mg | 1.23 |

---

- details: human, 2 h, pH 7.4
Where a name gives a salt, the structure may show the parent alone.
Recorded The cumulative amount of test compounds by entry

| compound | units of measure | The cumulative amount of test compounds |
| --- | --- | --- |
| CCOC(=O)NCCc1ccc(OC(=O)CNC)c(OC(=O)c2ccccc2)c1 [Compound-9b, hydrochloride] | mg | 1.26 |
| CCC(CC)C(=O)Oc1ccc(CCNC(=O)C2CCNCC2)cc1OC(=O)C(CC)CC.Cl | mg | 1.25 |
| CCN(CC)CCOC(=O)c1ccccc1OC(C)=O.Cl | mg | 2.13 |
| CCC(CC)OC(=O)[C@H](Cc1ccc(OC(=O)c2ccccc2)c(OC(=O)c2ccccc2)c1)NC(=O)C1CCCN1 (some centres unmarked) | mg | 1.15 |
| CCN(CC)CCOC(=O)C(C)c1ccc(CC(C)C)cc1.Cl (centres unmarked) | mg | 2.28 |
| CC(C(=O)OCCN(C)C)c1cccc(Oc2ccccc2)c1.Cl (centres unmarked) | mg | 2.31 |
| CCCC(CCC)OC(=O)[C@@H](N)Cc1ccc(OC(=O)c2ccccc2)c(OC(=O)c2ccccc2)c1.Cl | mg | 1.07 |
| CC(C(=O)SCCN(C)C)c1cccc(Oc2ccccc2)c1.Cl (centres unmarked) | mg | 2.33 |
